Attribution: ChEMBL document CHEMBL1156589

# Experiment Notes: Clearance in Sprague-Dawley rat at 20 mg/kg, po and 3 mg/kg, iv
# Assay type: ADME, organism-based
# Condition Parameters: in vivo
Readout Kind: clearance (mL/min/kg)
A number alone suffices; assume mL/min/kg.

Past entries and their recorded results:
1. CCCN(CCC)c1c(C)nc(-c2c(OC)cc(Cl)cc2OC)nc1OC	21
2. CCC(CC)Oc1c(C)nc(-c2c(OC)cc(Cl)cc2OC)nc1OC	13.6

clearance reported for this molecule CCCN(CCC)c1c(C)nc(-c2c(C)cc(C)cc2OC)c2ccccc12 : 14.5

* * *

# Experiment Notes: Volume of distribution in Sprague-Dawley rat at 20 mg/kg, po and 3 mg/kg, iv
# Type: ADME, organism-based
# Condition Parameters: in vivo
Readout Kind: Vd (L/kg)
Just the number in L/kg, nothing appended.

Recorded results for 2 molecules are shown here.
1) CCCN(CCC)c1c(C)nc(-c2c(C)cc(C)cc2OC)c2ccccc12	13
2) CCC(CC)Oc1c(C)nc(-c2c(OC)cc(Cl)cc2OC)nc1OC	14

Here is another molecule to look at.
For record CCCN(CCC)c1c(C)nc(-c2c(OC)cc(Cl)cc2OC)nc1OC the listed Vd is 12

* * *

# Experiment Notes: Tmax in Sprague-Dawley rat at 20 mg/kg, po and 3 mg/kg, iv
# Assay type: ADME, organism-based
# Condition Parameters: in vivo
Readout Kind: Tmax (min)
Answer with a number only, understood to be in min.

Value of measured Tmax for the entry CCCN(CCC)c1c(C)nc(-c2c(C)cc(C)cc2OC)c2ccccc12 : 42

Memo: CCCN(CCC)c1c(C)nc(-c2c(OC)cc(Cl)cc2OC)nc1OC , reported Tmax: 36

Input CCC(CC)Oc1c(C)nc(-c2c(OC)cc(Cl)cc2OC)nc1OC . Output Tmax: 108

* * *

# Target System: Corticotropin-releasing factor receptor 1 (Homo sapiens)
# Sequence (P34998 whole entry): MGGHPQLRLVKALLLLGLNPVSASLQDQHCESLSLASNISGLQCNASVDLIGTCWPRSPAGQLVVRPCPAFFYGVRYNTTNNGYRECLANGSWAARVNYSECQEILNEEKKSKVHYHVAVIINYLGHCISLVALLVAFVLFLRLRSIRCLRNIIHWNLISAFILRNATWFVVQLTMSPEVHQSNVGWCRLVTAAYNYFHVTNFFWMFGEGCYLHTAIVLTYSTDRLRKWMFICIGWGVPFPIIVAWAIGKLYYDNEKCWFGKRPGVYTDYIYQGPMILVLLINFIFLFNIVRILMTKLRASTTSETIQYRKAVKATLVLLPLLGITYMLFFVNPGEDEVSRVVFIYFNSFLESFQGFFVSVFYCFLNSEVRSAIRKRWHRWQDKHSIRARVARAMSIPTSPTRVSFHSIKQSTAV
Readout Kind: pKi
Conceptually, pKi converts a concentration in mol/L into minus its log10.

1) CCCN(CCC)c1c(C)nc(-c2ccc(OC)cc2OC)nc1OC	6.29
2) CCCN(CCC)c1c(CC(C)O)nc(-c2c(C)cc(C)cc2OC)nc1OC (centres undefined)	5.94
3) CCCc1nc(-c2c(C)cc(C)cc2OC)nc(OC)c1N(CCC)CCC	7.12

Alright, here's another compound for you.
pKi for Corticotropin-releasing factor receptor 1 (Homo sapiens) with input CCC(CC)Nc1c(C)nc(-c2c(C)cc(C)cc2OC)nc1OC equals 7.03
